Molecular target: UniProtKB P21453
Sequence (P21453 whole entry): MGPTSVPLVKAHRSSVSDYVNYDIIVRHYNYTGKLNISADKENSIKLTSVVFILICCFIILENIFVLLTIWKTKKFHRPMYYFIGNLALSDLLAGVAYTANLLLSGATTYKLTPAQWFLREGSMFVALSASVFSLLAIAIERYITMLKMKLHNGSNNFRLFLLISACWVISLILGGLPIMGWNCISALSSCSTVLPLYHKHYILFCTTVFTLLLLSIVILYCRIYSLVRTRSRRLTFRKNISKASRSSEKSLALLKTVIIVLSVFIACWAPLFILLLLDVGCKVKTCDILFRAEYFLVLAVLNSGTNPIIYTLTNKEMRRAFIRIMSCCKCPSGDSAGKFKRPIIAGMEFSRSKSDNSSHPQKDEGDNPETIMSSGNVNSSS
Experiment: CNG cAMP Assay (Assay 1)
Format: cell-based
Set-up: host or cells: HEK293 cells expressing the CNG channel
Conditions: footnote 1: Relative EC50 was measured, read-out: Assay 1 Relative EC50
Readout: EC50

Some entries whose results are on file:
Sample Smiles | EC50
O=C(O)Cc1ccc(-c2noc(-c3cn4cc(C(F)(F)F)cc(Cl)c4n3)n2)c(Cl)c1 | 1000 to 5000 nM
CS(=O)(=O)Nc1c(F)cc(-c2noc(-c3cn4cc(C(F)(F)F)cc(Cl)c4n3)n2)cc1F | 500 to 1000 nM
O=C(O)c1cc2cc(-c3noc(-c4cn5cc(C(F)(F)F)cc(Cl)c5n4)n3)ccc2[nH]1 | 5000 to 10000 nM

Could you now look at the following compound, please?
Please state recorded EC50 (tested on UniProtKB P21453) of `O=C(O)c1cc2cc(-c3noc(-c4cn5cc(C(F)(F)F)cc(Cl)c5n4)n3)ccc2o1`
1000 to 5000 nM

The reported numbers originate from patent US20100160369A1.
